All values here come from PubChem BioAssay (NCI).

# System: K-562 leukemia
# experimentSummary: NCI-60 one-dose screen, 48 h (100 = growth as untreated, 0 = no growth, -100 = all killed)
# conditionDetails: 10 µM unless noted
The panel holds about 83,000 compounds, 20% with a hit somewhere; the sample as a whole holds those more often.
Threshold-based label: growth under 20% gives label 1, growth not under 20% gives label 0.

molecule	labelValue
O=C(Nc1ccsc1C(=O)NC1CCCCC1)c1ccc(F)cc1	label 0
O=C(/C=C/c1ccccn1)c1ccc(OCc2nnc(-c3ccc(Cl)cc3)o2)cc1	label 1
C=CCN1C(=O)/C(=c2\sc3n(c2=O)NC2C(N=3)N(CC)C(=O)N2CC)c2ccccc21 (configuration not stated)	label 1
O=C(Nc1ccc(I)cc1F)c1cc(Br)ccc1O	label 1
N#C/C(=C1\SC(=O)CN1c1ccccc1)c1nc2ccccc2s1	label 0
CNCCNc1nc2ccccc2c2c(=O)c3cccc(OC)c3sc12	label 1
O=C(Nc1ccc(F)cc1F)c1cc(Cl)ccc1O	label 1
COc1ccc(Cn2c(Br)c3c(c2-c2cc(OC)c(OC)c(OC)c2)CCc2sc(NC(C)=O)nc2-3)cc1	label 1
Cc1cccc2c(=O)c3c(sc12)c(N1CCNCC1)nc1ccccc13	label 1
COC(=O)c1c2c(c(C)[n+]([O-])c1C)C(=O)C(NCc1ccc(F)c(F)c1)=CC2=O	label 1
O=Cc1cc2ccccc2nc1Nc1nccs1	label 0
CN(C)/C=C1\SC(=Nc2ccc(Cl)cc2)NC1=O	label 0
CCCCCCc1cc2cc(-c3nc4ccccc4[nH]3)c(=Nc3ccccc3C)oc2cc1O	label 1
C1CCN(c2nc(N3CCCCC3)nc(N3CCOCC3)n2)CC1	label 0
O=c1oc2ccc(F)cc2c(=O)n1-c1ccc(Cl)cc1F	label 1
COc1c(B(O)O)cccc1-c1nc2ccc3[nH]ncc3c2c2c1C1CCC2C1 (configuration not stated)	label 0
COc1ccc(C2Nc3ncnc(N)c3N=C3c4ccccc4C(=O)C32)cc1 (configuration not stated)	label 0
COc1ccc(/C=C/C(=O)c2ccc3cc(OC)c(OC)cc3c2)cc1OC	label 1
Cc1ccc(Cn2c(N3CCC(C(=O)NCc4cccs4)CC3)nc3ccccc32)cc1	label 1
COc1cc(C#N)cc2[nH]c(=O)oc12	label 0
COc1ccc(-c2cc(=O)c3c(OC)c4ccoc4c(/C=C/C=O)c3o2)cc1	label 1
COc1cc2nc(NC3CCCC3)nc(NC3CCN(C(C)C)CC3)c2cc1OC	label 1
